assay: Selectivity index, ratio of CC50 for cytotoxicity against human Huh-7 cells to IC50 for antiplasmodial activity against hepatic stage luciferase-expressing Plasmodium berghei sporozoites infected in human Huh-7 cells; format: toxicity, cell-based; conditions: read-out: Ratio CC50/IC50
Would you please tag the item 1 (yes) when its selectivity ratio is 1000 or above, and 0 (no) when it is below?

Assess whether reported selectivity ratio for CC[C@@]1([C@@H]2O[C@@H]([C@H]3O[C@@](O)(CNC(=O)c4ccccc4)[C@H](C)C[C@@H]3C)C[C@@H]2C)CC[C@H]([C@]2(C)CC[C@]3(C[C@H](O)[C@@H](C)[C@@H]([C@@H](C)[C@@H](OC)[C@H](C)C(=O)O)O3)O2)O1 sits at 1000 or higher. 1 (yes)

Reported selectivity ratio at or above 1000? CC[C@@]1([C@@H]2O[C@@H]([C@H]3O[C@@](O)(CO)[C@H](C)C[C@@H]3C)C[C@@H]2C)CC[C@H]([C@]2(C)CC[C@]3(C[C@H](O)[C@@H](C)[C@@H]([C@@H](C)[C@@H](OC)[C@H](C)C(=O)OCCCC[P+](c4ccccc4)(c4ccccc4)c4ccccc4)O3)O2)O1 0 (no)

Record CC[C@@]1([C@@H]2O[C@@H]([C@H]3O[C@@](O)(CO)[C@H](C)C[C@@H]3C)C[C@@H]2C)CC[C@H]([C@]2(C)CC[C@]3(C[C@H](O)[C@@H](C)[C@@H]([C@@H](C)[C@@H](OC)[C@H](C)C(=O)O)O3)O2)O1 ; criterion: selectivity ratio no lower than 1000. Met? 1 (yes)

Hello, I need to know if CC[C@@]1([C@@H]2O[C@@H]([C@H]3O[C@@](O)(COC(=O)Nc4ccccc4)[C@H](C)C[C@@H]3C)C[C@@H]2C)CC[C@H]([C@]2(C)CC[C@]3(C[C@H](O)[C@@H](C)[C@@H]([C@@H](C)[C@@H](OC)[C@H](C)C(=O)O)O3)O2)O1 has measured selectivity ratio not below 1000. Thanks! 1 (yes)

Textbook exercise: given the entry CC[C@@]1([C@@H]2O[C@@H]([C@H]3O[C@@](O)(CNC(=O)CCC[P+](c4ccccc4)(c4ccccc4)c4ccccc4)[C@H](C)C[C@@H]3C)C[C@@H]2C)CC[C@H]([C@]2(C)CC[C@]3(C[C@H](O)[C@@H](C)[C@@H]([C@@H](C)[C@@H](OC)[C@H](C)C(=O)O)O3)O2)O1 , state whether its selectivity ratio is greater than or equal to 1000. 0 (no)

Tell me whether selectivity ratio is at least 1000 here: CC[C@@]1([C@@H]2O[C@@H]([C@H]3O[C@@](O)(CNC(=O)Nc4ccccc4)[C@H](C)C[C@@H]3C)C[C@@H]2C)CC[C@H]([C@]2(C)CC[C@]3(C[C@H](O)[C@@H](C)[C@@H]([C@@H](C)[C@@H](OC)[C@H](C)C(=O)O)O3)O2)O1 1 (yes)

hey, is selectivity ratio for this one >= 1000? CC[C@@]1([C@@H]2O[C@@H]([C@H]3O[C@@](O)(CO)[C@H](C)C[C@@H]3C)C[C@@H]2C)CC[C@H]([C@]2(C)CC[C@]3(C[C@H](O)[C@@H](C)[C@@H]([C@@H](C)[C@@H](OC)[C@H](C)C(=O)OCc4ccccc4)O3)O2)O1 0 (no)

# bool: selectivity ratio of COc1cc(NC(C)CCCN)c2ncccc2c1 (stereo not drawn) >= 1000 0 (no)
